# methodSummary: Quantitative High-Throughput drug screen in 47 multiple myeloma cell lines against the NCATS MIPE library collection: KMS28BM_JCRB cell viability assay (AID 1919874); further: nearly all actives have a fitted effect of over 35% in size
# testParameters: CellTiter-Glo ATP, 48 h; series mostly up to 45.8 µM
Inconclusive results are not listed. Activity calls are given as the source filed them. The call rests on the fitted dose curve; in most records, active means well fitted cell-killing curve with a large enough effect; inconclusive means small, poorly fitted or top-dose-only effect, or effect the other way; inactive means no such curve, though single readings can be large or run the other way.
Form entry, call: pick from Y = active, N = inactive

{"molecule": "CCc1c2c(nc3ccc(O)cc13)-c1cc3c(c(=O)n1C2)COC(=O)[C@]3(O)CC", "group": "Y"}
{"molecule": "CC(C)[C@H](C(=O)Nc1ccc(C(=O)NO)cc1)c1ccccc1", "group": "Y"}
{"molecule": "c1nc2nc(Nc3ccc(N4CCOCC4)cc3)nc(NC3CCCCC3)c2[nH]1", "group": "Y"}
{"molecule": "Nc1ncnc2c1c(-c1cccc(OCc3ccccc3)c1)cn2C1CC(CN2CCCC2)C1 (stereo not given)", "group": "Y"}
{"molecule": "Nc1ccc(S(=O)(=O)Nc2ncccn2)cc1", "group": "N"}
{"molecule": "COc1cccc(-c2ccc(NC(=O)C3=C(C(=O)O)CCC3)c(F)c2)c1", "group": "Y"}
{"molecule": "NC1(Cc2ccc(Cl)cc2)CCN(c2ncnc3[nH]ccc23)CC1", "group": "Y"}
{"molecule": "COc1ccc(CC2SC(=O)NC2=O)cc1C(=O)NCc1ccc(C(F)(F)F)cc1 (stereo not given)", "group": "N"}
{"molecule": "CC[C@H]1CN2CCc3cc(OC)c(OC)cc3[C@H]2C[C@@H]1C[C@@H]1NCCc2cc(OC)c(OC)cc21", "group": "Y"}

Now look at this one.
Task item: Can you look up the reported call for `Cc1cn2cc(C(=O)N(C)CCO)cc(N[C@@H]3CCOc4cccc(C)c43)c2n1` for me?
Reply: N

From: PubChem BioAssay (NCATS)
